Assay Target: PKA (Mus musculus, UniProt P05132)
Construct: His tag (inferred from pET15b vector and Ni-NTA column) (N); host or cells: E. coli Rosetta(DE3)pLysS
Measurement Description: PKA inhibition assay (ADP-Glo, CREBtide, 100 μM ATP)
Type: biochemical
Condition Parameters: logarithm of IC50 (−3.3 corresponds to 0.5 mM, footnote c); 438 nM PKA, 100 μM ATP, CREBtide; read-out: PKA log IC50 (converted)
Listed here: items and their measured IC50.
Property Measured: IC50

> print(dat)
                                   compound  property.measured  measurement
1  CC1=C(C(=O)Nc2ccc3[nH]ncc3c2)C(c2ccc(Cl)c(Cl)c2)CC(=O)N1 (centres unmarked) [GSK299115A]               IC50      63.1 µM
2  CCCN1CCC(c2ccc(Nc3nc(Nc4cc(F)ccc4C(N)=O)c4cc[nH]c4n3)c(OC)c2)CC1 [GSK1326255A]               IC50     > 501 µM
3  Fc1ccc([C@@H]2CCNC[C@H]2COc2ccc3c(c2)OCO3)cc1 [paroxetine]               IC50     > 501 µM
4  CNC(=O)c1ncccc1Nc1nc(Nc2cc3c(cc2OC)CCCN3C(=O)CN(C)C)nc2[nH]ccc12 [GSK2220400A]               IC50     > 501 µM
5  CCn1c(-c2nonc2N)nc2c(C#CC(C)(C)O)nc(O[C@@H](CN)c3ccccc3)cc21 [GSK1007102B]               IC50     0.501 µM
6  CC(C)COC(=O)c1ccc2c(c1)/C(=C/Nc1ccc(S(N)(=O)=O)cc1)C(=O)N2 [GW416981X]               IC50     > 501 µM
7  COc1cc2c(cc1Nc1nc(Nc3ccsc3C(N)=O)c3cc[nH]c3n1)N(C(=O)CN(C)C)CCC2(C)C [GSK2163632A]               IC50     > 501 µM
8  COc1cc2c(cc1Nc1nc(Nc3ccsc3C(N)=O)c3cc[nH]c3n1)N(C(=O)CN(C)C)CCC2 [GSK2110236A]               IC50     > 501 µM

---

Measured ΔTm, primary screen, GRK5, listed per entry for reference.
Assay Target: bovine GRK5 (Bos taurus, UniProt P43249)
Construct: when using full-length kinases as the receptor[37] instead of isolated kinase domains; made in house
Sequence (P43249 whole entry, the tested form may be a part): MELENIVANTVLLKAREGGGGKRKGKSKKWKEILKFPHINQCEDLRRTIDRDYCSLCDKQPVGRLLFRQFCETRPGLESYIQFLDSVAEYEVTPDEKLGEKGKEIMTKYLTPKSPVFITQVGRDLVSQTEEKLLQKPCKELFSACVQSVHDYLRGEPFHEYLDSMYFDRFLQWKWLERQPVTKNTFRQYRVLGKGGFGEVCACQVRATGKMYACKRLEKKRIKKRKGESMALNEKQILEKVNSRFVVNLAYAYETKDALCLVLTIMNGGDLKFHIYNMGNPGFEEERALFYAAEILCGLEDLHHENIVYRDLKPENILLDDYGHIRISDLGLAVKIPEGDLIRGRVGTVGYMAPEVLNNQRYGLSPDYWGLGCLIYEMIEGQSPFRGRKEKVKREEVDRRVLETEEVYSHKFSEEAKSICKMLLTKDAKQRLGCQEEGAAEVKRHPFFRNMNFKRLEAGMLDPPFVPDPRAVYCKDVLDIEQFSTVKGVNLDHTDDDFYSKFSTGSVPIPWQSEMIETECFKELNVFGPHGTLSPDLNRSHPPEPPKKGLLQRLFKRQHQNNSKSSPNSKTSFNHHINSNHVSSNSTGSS
Measurement Description: Primary DSF inhibitor screen, GRK5
Assay type: binding
Condition Parameters: 10 μM compound, 2 μM kinase, relative to DMSO control
Property Measured: ΔTm, primary screen, GRK5

> print(dat)
                                   compound  measurement
1  Nc1nc(Nc2ccc(S(N)(=O)=O)cc2)nn1C(=O)c1c(F)cccc1F      5.41 °C
2  NC1=NC(=O)C(=C2CCNC(=O)c3[nH]c(Br)cc32)N1 [10Z-Hymenialdisine]       4.5 °C
3  CNC(=O)c1ncccc1Nc1nc(Nc2cc3c(cc2OC)CCCN3C(=O)CN(C)C)nc2[nH]ccc12 [GSK2220400A]       6.9 °C
